Parameter Cell survival rate: see the listing below.
Test system: calvaria
Test details: Cytotoxicity test (MTT), calvaria
Type: cell-based
Condition label: 10^−6 M, cultured for 72 hrs, in comparison with the control group
API: value field is a number in %; no unit string.

Worked examples, 5 compounds total:
{"Smiles string": "Cc1nc(-c2ccc(OCCCCCOc3ccc(C(=N)NO)cc3)cc2)c(CNC(C)(C)C)s1", "Display unit": "%", "Cell survival rate": 105}
{"Smiles string": "Cc1nc(-c2ccc(OCCCCCOc3ccc(C(=N)NO)cc3)cc2)c(CN2CCSCC2)s1", "Display unit": "%", "Cell survival rate": 94.5}
{"Smiles string": "CN1CCN(Cc2sc(N(C)CCN3CCOCC3)nc2-c2ccc(OCCCCCOc3ccc(C(=N)NO)cc3)cc2)CC1", "Display unit": "%", "Cell survival rate": 102}
{"Smiles string": "N=C(NO)c1ccc(OCCCCCOc2ccc(-c3nc(N4CCOCC4)sc3N3CCSCC3)cc2)cc1", "Display unit": "%", "Cell survival rate": 106}
{"Smiles string": "Cc1nc(-c2ccc(OCCCCCOc3ccc(C(=N)NO)cc3)cc2)c(CNCC(C)C)s1", "Display unit": "%", "Cell survival rate": 103}

So what's the measured Cell survival rate for this one? COCCNCc1sc(N(C)CCN2CCOCC2)nc1-c1ccc(OCCCCCOc2ccc(C(=N)NO)cc2)cc1 94

Item under review: Cc1nc(-c2ccc(OCCCCCOc3ccc(C(=N)NO)cc3)cc2)c(CNCCN2CCOCC2)s1 . Reported Cell survival rate? 93

Which Cell survival rate value is on record for CN(C)c1sc(-c2ccccc2)nc1-c1ccc(OCCCCCOc2ccc(C(=N)NO)cc2)cc1 ? 98

Which measured Cell survival rate value corresponds to N=C(NO)c1ccc(OCCCCCOc2ccc(-c3nc(N4CCOCC4)sc3N3CCCC3)cc2)cc1 ? 101
